System: RPMI
assayInfo: MTT cytotoxicity assay in RPMI MM cell line
experimentalParameters: RPMI, single phytocannabinoid 25 μM, daily, 72 hours, vs vehicle
Below: a set of entries, each annotated with reported % VIABILITY ± S.D..
Expressed in %, but write only the number.

Here is how some molecules turned out for % VIABILITY ± S.D..
| molecule | quantityUnit | reportedMeasurement |
| --- | --- | --- |
| CCCCCc1cc(O)c2c(c1)OC(C)(C)c1ccc(C)cc1-2 [CBN] | % | 81.1 |
| CCCCCc1cc(O)c(C/C=C(\C)CCC=C(C)C)c(O)c1 [CBG] | % | 69.1 |
| CCCCCc1cc(O)c2c(c1)OC(C)(CCC=C(C)C)C=C2 (stereo not shown) [CBC] | % | 98.3 |

Next molecule, please.
Q: Request the reported % VIABILITY ± S.D. associated with C=C(C)[C@@H]1CCC(C)=C[C@H]1c1c(O)cc(CCC)cc1O [CBDV]
A: 40.2
